- protocolDescription: soluble on expression in E. coli; label from the status in PepcDB or PDB records
measuredAttribute: soluble on expression in E. coli

Completed entries (count: 8):
Entry "MIGKCTHVVDCRETMGMGEGGGIAQRGTFAQCGSEVLAVAMSPGRRHITKPVCEITFALREANIMTSTIVLNAGAGVPQDAPSAGAGSLFGLTPAEVEQMKRHKLLVVHLGGVKNHITYKARLILRNVDRPCIIICEYPVDFEDFAKIGVRTRAVMPDEPKTKGTIVDIVSGVIRGETCPQEKLDEIIRKVKLALGGALEHHHHHH" : reported soluble on expression in E. coli = ?
not soluble

Also "MRCYAKIHSYQLLFVADVDYDCHHKDKFFRRHCVVAKILPRFDAVLFLDADTGVVNPSRKIEEFLKPGIDITFVNRFCNWEIASGFYLARNTPFAINLLNNFADYESKLPNSFHGTDNGAIHIFLAEKIFPQASIEIGICRRAYEKSTSVEDLILYEACIKALFGVVTDFGKIQILRKGTGWARDGWLTSMVWHPETDFMLHGWKTNALIPTPTDPLVAIEMSMSQWFNPLNGSIDLSKCNSHNSTWNYDARLLGNNEEIQKSLHRIQKENSILQVKAYSDFSKFISL" , if possible.
not soluble

Also "MAEDEIVVEEEQSQPQEITPVPPSSSSSPSLVVEDDDEMKLKHLEFIQVAAVYFAACFSTLYELAKDNAGPLKLGVENIEDCVRTVLAPLYEKFHDVPFKLLLFVDRKVDDVFFDVETYVPSLVKQASSQALTVATEVQRTGVVDTTKSIARSVRDKYEPAAEYYAATLWRLLNQLPLFPEVAHLVIPTAFYWSEKYNDAVRYVGDRDYFGAEYLPMIPIEKISDILEQDQCRAD" , if possible.
not soluble

Also "MSAPRLPVTVLTGFLGAGKTTLLSKLLENNKQRRLAILVNEFGEVSIDGGLLRDGENQGVEIHDLANGLVAYDDDADFLPTMLALWQRRQQIDHVLIETSGLALPSAVMAQLQSEALAPYFVLDATLAVVDTPLLLAGHFAPAGDGGKTDAVAALFDQQLGHADIVVLNKIDALSADQLLAAEEAVRKQAPSIRFIELAYEAKLDTRLTLGLHLHEASPAAHRHYGPVASMPGLAMRPLANQTLLDGHSHGGQAAHSHGLATHKHFHEQDPGWQSFMIRSKEPQCADKLAAALQAIAREEPLLRIKGFAACADSPGRLLAQGVRSRIELSRDDTLAAPRQAQLVFIGYHPSRPRVVALLRDITGAHWSLEHHHHHH" , if possible.
not soluble

Also "MTDTRKFKATDLFSFNNINLDPLTETFNISFYLSYLNKWPSLCVVQESDLSDPTLMGYIMGKSEGTGKEWHTHVTAITVAPNSRRLGLARTMMDYLETVGNSENAFFVDLFVRASNALAIDFYKGLGYSVYRRVIGYYSNPHGKDEDSFDMRKPLSRDVNRESIRENGENFKCSPADVSF" , if possible.
soluble

Also "MIGVVIPAHNEEQLLADCLRCALKAASHPELNEDVAILVVLDSCSDGSLDIARQFAVQHLQLQVRNVGRARAAGAQLLLQAGARWLSCTDADSRVPEDWLVAQLALGADAVCGTVTVDRWSESFEPQARIRYHDAYQDSDGHRHIHGANLGISAAAYVRAGGFEALACHEDVQLVRQLQRCGASIAWSRHPQVITSGRLDSRAKGGFGDYLKGLNEPCAGLLEHHHHHH" , if possible.
not soluble

Also "MSTSAGSSGAAASEPTTAKSLTYSETMNDLRKGSLFGRQKESLATTDGGPQPSSLDDKSQQFKNPIESDKPGPSTEPGRSAKIEQEAPAPTLKKSETPPAFGLSGVVKKVPSVYFPIFNKLGVKIPGFLPSLRETKINAPHIVYDVRRLRLLQKRQRPIKQLWLRLQFQLRFQMQLLKAQTKSSRVPDNASAVMWLHYIEVIEDHCTADC" , if possible.
not soluble

Also "GPGSMTDYIRDGQAIYDRSFAIIRAEADLRHIPADLEKLAVRVIHACGMVDVANDLAFSEGAGKAGRNALLAGAPILCDARMVAEGITRSRLPADNRVIYTLSDPSVPELAKKIGNTRSAAALDLWLPHIEGSIVAIGNAPTALFRLFELLDAGAPKPALIIGMPVGFVGAAESKDELAANSRGVPYVIVRGRRGGSAMTAAAVNALASERE" , if possible.
soluble

Please give soluble on expression in E. coli for each item listed below.
1. AEEHEHHHHDEEHAHHHHHEGSEVDEYGISTFVYYRRPAFDIHKFDRFVSTQWSRNIIRAKGVCYFSNNRDMSFLFEQAGVQKKLKEAGLWYATAPEEELIEVIRQEPGLLRDWDDKYGDRMQKIVFIGRHLDKEELIRELDECLE
2. MKVKNNAQLLMPREKMLKFGISALTDVELLALFLRTGTRGKDVLTLAKEMLENFGSLYGLLTSEYEQFSGVHGIGVAKFAQLKGIAELARRYYNVRMREESPLLSPEMTREFLQSQLTGEEREIFMVIFLDSQHRVITHSRLFSGTLNHVEVHPREIIREAIKINASALILAHNHPSGCAEPSKADKLITERIIKSCQFMDLRVLDHIVIGRGEYVSFAERGWI
3. MGSDKIHHHHHHMNTSGDRLRILLRECHLTATDFAANRKITPQHVNNWFKRGVPMARIDEVAELLTVNARWLRSGDGPKHPNESANENTGDDKRMAIQQTRNVLRGDVEIQIYMEVESPHGVGKTVLSEAPGQKIRLPLQVLQTMGIDPKNCMCVAMVGNSMADKIQDGSILGVDRELTQVIDGEIYALEHGGILRVRYLYRLPNGGLRLRSHNDAEYPDEVFSGEDIAREKIRILGWIFWWSTLNSRRNAMLLL
4. MSTGRTAITQPLRRLMRCSRALRRGTWPCSIGLQGIPIKSTPLQLRSCAQRLTFPGTSTGFLWEVWAMSYLRYVKIIGTVHVSPESVREVRETIIREKPDAIALELDYPRLLALLRRERLTLPQALKLGKMGIFGFILQELEMFFGRSFGESPGEEMIEAYKAAASLGIPVYLIDKPVNETLAGMLSSPPIEKLRFGIEVLASLLPGKLKELDYSYLMKEFREKFPHMYKVLVEERNLYMAINLMRIVDSLLEKKKKVKVVAVVGLGHKKGIERILNAHKPRAVKINSL

["not soluble", "not soluble", "not soluble", "not soluble"]
